- Study Target: EP4 (Homo sapiens)
- Construct: BT549 breast cancer cells, express high endogenous EP4 levels and very low EP2 levels
- Procedure Summary: hEP4 cAMP Assay (BT549 breast cancer cells, HTRF cAMP, PGE2 6 nM)
- Study Conditions: antagonistic activity, PGE2 6 nM (EC80)
pIC50: −log10 of the molar value.
Quick rule: pIC50 of at least 7 means fulfilled, below that means not fulfilled.

## Input Is pIC50 for CCOc1cc(-c2cc(NCCc3c(OC)ccc4ccccc34)ncn2)ccc1CC(=O)O [Example 160] at or above 7?
## Output not fulfilled

## Input Is pIC50 for COc1ccc2ccccc2c1CCNc1cc(-c2ccc(C(=O)O)c(OC3CCC3)c2)ncn1 [Example 5] at or above 7?
## Output not fulfilled

## Input Is pIC50 for CCOc1cc(-c2cc(NCCc3c(OC)ccc4ncccc34)ncn2)ccc1O [Example 90] at or above 7?
## Output not fulfilled

## Input Is pIC50 for CCOc1cc(-c2cc(NCCc3ccc(OC)c4ccccc34)ncn2)sc1-c1noc(=O)[nH]1 [Example 141] at or above 7?
## Output fulfilled

## Input Is pIC50 for CCOc1nc(-c2cc(NCCc3c(OC)ccc4ccccc34)ncn2)sc1-c1noc(=O)[nH]1 [Example 149] at or above 7?
## Output fulfilled

## Input Is pIC50 for COc1ccc2ccccc2c1CCNc1cc(-c2ccc(-c3c(O)c(=O)c3=O)cc2)ncn1 [Example 116] at or above 7?
## Output not fulfilled

## Input Is pIC50 for CCOc1cc(-c2cc(NCCc3c(C)ccc4ccccc34)ncn2)ccc1OCC(=O)O [Example 48] at or above 7?
## Output not fulfilled

## Input Is pIC50 for COc1ccc2cccc(CCNc3cc(-c4cc(C(F)(F)F)c(C(=O)O)s4)ncn3)c2n1 [Example 150] at or above 7?
## Output not fulfilled

###

- Study Target: PTGER2 (EP2) (Homo sapiens)
- Sequence (P43116 whole entry): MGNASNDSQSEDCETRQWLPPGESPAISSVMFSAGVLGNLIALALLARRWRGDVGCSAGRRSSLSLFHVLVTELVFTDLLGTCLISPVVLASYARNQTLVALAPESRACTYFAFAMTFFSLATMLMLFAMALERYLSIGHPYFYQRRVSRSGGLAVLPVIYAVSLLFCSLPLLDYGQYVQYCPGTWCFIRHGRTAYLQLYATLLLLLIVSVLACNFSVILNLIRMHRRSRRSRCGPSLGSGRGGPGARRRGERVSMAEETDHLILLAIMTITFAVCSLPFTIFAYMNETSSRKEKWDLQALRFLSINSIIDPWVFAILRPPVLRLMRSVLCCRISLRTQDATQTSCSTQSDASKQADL
- Procedure Summary: hEP2 b-Arrestin Assay (PathHunter HEK 293 PTGER2 b-arrestin cells, PGE2 5 μM)
- Study Conditions: antagonistic activity, beta-arrestin assay, HEK 293 PTGER2 cells, PGE2 5 μM (EC80); read-out: hEP2 b-arr IC50
- Description: The antagonistic activities of the compounds of formula (I) on the EP2 and EP4 receptors are also determined in accordance with the following experimental method. […] PathHunter Glo Detection Kit components are thawed and mix according to manufacturer's instructions: 1 part Galacton Star Substrate with 5 parts Emerald II™ Solution, and 19 parts of PathHunter Cell Assay Buffer, respectively. […] Luminescence counts are read on a BMG Fluostar Optima reader according to manufacturer's instructions. […]
Please go through the items and note down their IC50.

## Input Param readout = IC50; param system = PTGER2 (EP2) (Homo sapiens); param query = CCCc1cc(-c2cc(NCCc3c(OC)ccc4ccccc34)ncn2)ccc1C(=O)O ; response: value
## Output 12 nM

## Input Param readout = IC50; param system = PTGER2 (EP2) (Homo sapiens); param query = CCOc1cc(-c2cc(NCCc3c(F)ccc4ccccc34)ncn2)ccc1CC(=O)O ; response: value
## Output 132 nM

## Input Param readout = IC50; param system = PTGER2 (EP2) (Homo sapiens); param query = Cc1ccc2cnccc2c1CCNc1cc(-c2ccc(C(=O)O)c(OC3CCC3)c2)ncn1 ; response: value
## Output 149 nM

## Input Param readout = IC50; param system = PTGER2 (EP2) (Homo sapiens); param query = CCOc1cc(-c2cc(NCCc3c(OC)c(OC)cc4ccccc34)ncn2)sc1C(=O)O ; response: value
## Output 28 nM

###

Please go through the items and note down their pIC50.
- Study Target: PTGER4 (EP4) (Homo sapiens, UniProt P35408)
- Construct: host or cells: HEK 293 (PathHunter, stably transfected)
- Procedure Summary: hEP4 b-Arrestin Assay (PathHunter HEK 293 PTGER4 b-arrestin cells, PGE2 20 nM)
- Type: cell-based
- Study Conditions: antagonistic activity, beta-arrestin assay, HEK 293 PTGER4 cells, PGE2 20 nM (EC80); read-out: hEP4 b-arr IC50
Please note pIC50 is a logarithmic value: minus log10 of concentration in mol/L. Answer with that number alone.

## Input Given the compound CCOc1cc(-c2cc(NCCc3cccc4cnccc34)ncn2)sc1-c1noc(=O)[nH]1 , what is its reported pIC50?
## Output 7.70

## Input Given the compound CCOc1cc(-c2cc(NCCc3c(OC)ccc4ccccc34)ncn2)sc1C(=O)O , what is its reported pIC50?
## Output 7.70

## Input Given the compound CCOc1cc(-c2cc(NCCc3c(OC)ccc4ncccc34)ncn2)sc1-c1nnn[nH]1 , what is its reported pIC50?
## Output 7.74

## Input Given the compound CCOc1cc(-c2cc(NCCc3ccc(C)c4ccccc34)ncn2)ccc1OCC(=O)O , what is its reported pIC50?
## Output 7.18

###

- Study Target: EP4 (Homo sapiens, UniProt P35408)
- Construct: BT549 breast cancer cells, express high endogenous EP4 levels and very low EP2 levels
- Sequence (P35408 whole entry): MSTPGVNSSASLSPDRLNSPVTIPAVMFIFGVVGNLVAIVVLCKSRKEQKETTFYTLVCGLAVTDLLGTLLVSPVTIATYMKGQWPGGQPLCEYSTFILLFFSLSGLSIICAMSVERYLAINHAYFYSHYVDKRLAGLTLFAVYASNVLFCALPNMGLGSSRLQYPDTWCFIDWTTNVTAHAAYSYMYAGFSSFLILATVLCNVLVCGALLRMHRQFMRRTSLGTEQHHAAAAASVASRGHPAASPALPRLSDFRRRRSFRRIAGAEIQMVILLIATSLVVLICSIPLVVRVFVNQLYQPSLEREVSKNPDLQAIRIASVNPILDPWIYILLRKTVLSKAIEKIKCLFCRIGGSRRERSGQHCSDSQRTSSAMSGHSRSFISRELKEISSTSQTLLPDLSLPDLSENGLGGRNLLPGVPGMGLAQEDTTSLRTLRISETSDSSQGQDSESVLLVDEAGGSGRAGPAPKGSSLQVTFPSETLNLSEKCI
- Procedure Summary: hEP4 cAMP Assay (BT549 breast cancer cells, HTRF cAMP, PGE2 6 nM)
- Study Conditions: antagonistic activity, PGE2 6 nM (EC80)
pIC50: −log10 of the molar value.
Quick rule: pIC50 of at least 7 means Criterion met, below that means Criterion not met.

## Input Is pIC50 for CCOc1cc(-c2cc(NCCc3c(OC)ccc4c(OC)cccc34)ncn2)sc1C(=O)O at or above 7?
## Output Criterion met

## Input Is pIC50 for CCOc1cc(-c2cc(NCCc3c(OC)ccc4ccccc34)ncn2)ccc1-c1noc(=O)[nH]1 at or above 7?
## Output Criterion met

## Input Is pIC50 for CCOc1cc(-c2cc(NCCc3c(F)ccc4ccccc34)ncn2)ccc1C(=O)O at or above 7?
## Output Criterion not met

## Input Is pIC50 for CCc1nc(-c2cc(NCCc3c(OC)ccc4ccccc34)ncn2)sc1-c1noc(=O)[nH]1 at or above 7?
## Output Criterion not met

## Input Is pIC50 for CCOc1cc(-c2cc(NCCc3c(N)ccc4ccccc34)ncn2)sc1C(=O)O at or above 7?
## Output Criterion met

## Input Is pIC50 for Cc1ccc2cnccc2c1CCNc1cc(-c2ccc(C(=O)O)c(OC3CCC3)c2)ncn1 at or above 7?
## Output Criterion not met

## Input Is pIC50 for CCOc1ccc2ccccc2c1CCNc1cc(-c2ccc(C(=O)O)c(OC3CCC3)c2)ncn1 at or above 7?
## Output Criterion not met

###

- Study Target: EP4 (Homo sapiens)
- Construct: BT549 breast cancer cells, express high endogenous EP4 levels and very low EP2 levels
- Procedure Summary: hEP4 cAMP Assay (BT549 breast cancer cells, HTRF cAMP, PGE2 6 nM)
- Study Conditions: antagonistic activity, PGE2 6 nM (EC80)
pIC50: −log10 of the molar value.
Quick rule: pIC50 of at least 7 means Y, below that means N.

## Input Is pIC50 for CCOc1cc(-c2cc(NCCc3cccc4ccsc34)ncn2)ccc1OCC(=O)O [Example 104] at or above 7?
## Output N

## Input Is pIC50 for CCOc1cc(-c2cc(NCCc3cccc4c3ccn4C)ncn2)ccc1OCC(=O)O [Example 49] at or above 7?
## Output N

## Input Is pIC50 for CCOc1cc(-c2cc(NCCc3c(C)ccc4cnccc34)ncn2)ccc1OCC(=O)O [Example 86] at or above 7?
## Output N

## Input Is pIC50 for CCc1nc(-c2cc(NCCc3c(OC)ccc4ccccc34)ncn2)sc1C(=O)O [Example 148] at or above 7?
## Output N

## Input Is pIC50 for CCOc1cc(-c2cc(NCCc3c(C#N)ccc4ccccc34)ncn2)ccc1C(=O)O [Example 67] at or above 7?
## Output N

## Input Is pIC50 for CCOc1cc(-c2cc(NCCc3c(OC)ccc4ccccc34)ncn2)sc1CC(=O)O [Example 132] at or above 7?
## Output N

## Input Is pIC50 for O=C(O)c1ccc(-c2cc(NCCc3cccc4sccc34)ncn2)cc1OC1CCC1 [Example 107] at or above 7?
## Output N

## Input Is pIC50 for CCOc1cc(-c2cc(NCCc3ccc(Br)c4ccccc34)ncn2)ccc1C(=O)O [Example 182] at or above 7?
## Output N

## Input Is pIC50 for CCOc1cc(-c2cc(NCCc3cccc4cnccc34)ncn2)sc1-c1noc(=O)[nH]1 [Example 144] at or above 7?
## Output Y

## Input Is pIC50 for CCOc1cc(-c2cc(NCCc3cccc4cc(C)n(C)c34)ncn2)sc1C(=O)O [Example 56] at or above 7?
## Output N

## Input Is pIC50 for CCOc1cc(-c2cc(NCCc3c(OC)ccc4c3OCO4)ncn2)sc1C(=O)O [Example 44] at or above 7?
## Output Y
